- Assay overview: Pharmacokinetics: plasma levels after oral dosing to rats
- Format: in vivo
- Test parameters: male, Sprague Dawley, 6.1 mg/kg, rat, 6.10 mg/kg PO, at 6 hrs, read-out: Plasma level of Example 2
Structures can show the parent of a compound that is named as a salt.
Measured parameter: concentration at 6 h

1. CC(=O)c1ccc2c(c1)[C@H](NC(=O)c1ccc(F)c(Cl)c1)[C@H](OC(=O)CN(C)C)C(C)(C)O2 [Example 2, hydrochloride] = < 5 ng/mL

* * *

- Assay overview: Pharmacokinetics: plasma levels after oral dosing to rats
- Type: in vivo
- Test parameters: male, Sprague Dawley, 6.1 mg/kg, rat, 6.10 mg/kg PO, at 5 min, read-out: Plasma level of Example 2
Structures can show the parent of a compound that is named as a salt.
Measured parameter: concentration at 5 min (ng/mL)

1. CC(=O)c1ccc2c(c1)[C@H](NC(=O)c1ccc(F)c(Cl)c1)[C@H](OC(=O)CN(C)C)C(C)(C)O2 [Example 2, hydrochloride] = 38

* * *

- Assay overview: Pharmacokinetics: plasma levels after intravenous dosing to rats
- Assay type: in vivo
- Test parameters: male, Sprague Dawley, rat, 0.95 mg/kg IV, at 5 min, read-out: Plasma level of Example 2
Structures can show the parent of a compound that is named as a salt.
Measured parameter: concentration at 5 min (ng/mL)

1) CC(=O)c1ccc2c(c1)[C@H](NC(=O)c1ccc(F)c(Cl)c1)[C@H](OC(=O)CN(C)C)C(C)(C)O2 [Example 2, hydrochloride] = 730
